- System: CAKI-1 renal
- protocol_description: NCI tumour cell line growth inhibition, 48 h; in the data active = GI50 below about 0.43 µM; inactive = the rest
*1 amine or outer side, *2 acyl side, *3 side chain or, on linkers, in order; H or OH if unused. Where a SMILES comes first, the peptide text is derived from it. Bridges are numbered along the chain shown (N, C = ends). Roman numbers before positions name the chains, in order. [ ]: non-standard residue; d: D form. Actinocin(9to1) = Cc1c2oc3c(C)ccc(C(=O)[*:1])c3nc-2c(C(=O)[*:2])c(N)c1=O; NMeV = CN[CH](C(=O)O)C(C)C; Sar = CNCC(=O)O
Select the correct class. Options are active, inactive and nothing else.

Would you please look over these solved cases?
INSERT INTO measurements (compound, subject_of_test, assigned_category) VALUES
  ('Cc1ccc2[nH]c3c(c2c1)N=c1ccccc1=NO3', 'CAKI-1 renal', 'inactive'),
  ('CCC[CH2][Sn]([CH2]CCC)([CH2]CCC)[O]C(=O)C(OC(C)=O)c1ccccc1 (configuration not stated)', 'CAKI-1 renal', 'active'),
  ('C[C@]12CC[C@@H]3c4ccc(O)cc4CC[C@H]3[C@@H]1CC[C@@H]2NS(=O)(=O)c1cccc(Cl)c1', 'CAKI-1 renal', 'inactive'),
  ('COc1cc(OC)cc(-c2nc3sccn3c2/C=N/N=C(N)N)c1', 'CAKI-1 renal', 'inactive'),
  ('CCN1C(=O)N(CC)C2C1NN=c1s/c(=C\c3cccs3)c(=O)n12 (configuration not stated)', 'CAKI-1 renal', 'active'),
  ('Cc1c2oc3c(C)ccc(C(=O)OC(C)C4NC(=O)C(C(C)C)N(C)C(=O)CN(C)C(=O)C5CCCN5C(=O)C(C(C)C)NC4=O)c3nc-2c(C(=O)OC(C)C2NC(=O)C(C(C)C)N(C)C(=O)CN(C)C(=O)C3CCCN3C(=O)C(C(C)C)NC2=O)c(N)c1=O (configuration not stated) (I: cyclo([Sar][NMeV]TVP) / II: cyclo([Sar][NMeV]TVP); linker I:3-II:3 via Actinocin(9to1); configuration not given here)', 'CAKI-1 renal', 'active');

IN: Query: recorded result category for "CN(C)C[C@H]1CCn2c(c(C3=C(c4cn(C)c5ccccc45)C(=O)NC3=O)c3ccccc32)C1" in this test
OUT: inactive

###

- Test system: MDA-MB-435
- protocol_description: NCI tumour cell line growth inhibition, 48 h; in the data active means GI50 below about 0.43 µM; inactive means the rest
*1 amine or outer side, *2 acyl side, *3 side chain or, on linkers, in order; H or OH if unused. Where a SMILES comes first, the peptide text is derived from it. Bridges are numbered along the chain shown (N, C = ends). Roman numbers before positions name the chains, in order. [ ]: non-standard residue; d: D form. Actinocin(9to1) = Cc1c2oc3c(C)ccc(C(=O)[*:1])c3nc-2c(C(=O)[*:2])c(N)c1=O; NMeV = CN[CH](C(=O)O)C(C)C; Sar = CNCC(=O)O
Select the correct class. Options are active, inactive and nothing else.

Would you please look over these solved cases?
INSERT INTO measurements (molecule, subject_of_test, assigned_category) VALUES
  ('C=C(C)[C@@H]1C/C=C(/CO)CC[C@H]2O[C@]2(C)CC/C=C(\C)CC1', 'MDA-MB-435', 'inactive'),
  ('COc1ccc(OC)c(NC(=O)c2cccc(NC3=C(Cl)C(=O)N(Cc4ccccc4)C3=O)c2)c1', 'MDA-MB-435', 'inactive'),
  ('Cc1c2oc3c(C)ccc(C(=O)OC(C)C4NC(=O)C(C(C)C)N(C)C(=O)CN(C)C(=O)C5CCCN5C(=O)C(C(C)C)NC4=O)c3nc-2c(C(=O)OC(C)C2NC(=O)C(C(C)C)N(C)C(=O)CN(C)C(=O)C3CCCN3C(=O)C(C(C)C)NC2=O)c(N)c1=O (stereo not given) (I: cyclo([Sar][NMeV]TVP) / II: cyclo([Sar][NMeV]TVP); linker I:3-II:3 via Actinocin(9to1); configuration not given here)', 'MDA-MB-435', 'active'),
  ('N#Cc1ccc(CSc2ncnc3nc[nH]c23)cc1', 'MDA-MB-435', 'inactive');

With those in mind, consider the next molecule.
IN: Query: recorded result category for "CCCCC[C@H]1CC=C2C(=O)C=C[C@@H]2CC=CCCCC(=O)O[C@@H](CCCCC)CC=C2C(=O)C=C[C@@H]2CC=CCCCC(=O)O[C@@H](CCCCC)CC=C2C(=O)C=C[C@@H]2CC=CCCCC(=O)O1" in this test
OUT: active

###

- Tested on: SN12C renal
- protocol_description: NCI tumour cell line growth inhibition, 48 h
Let's look at some molecules and their measured TGI.
Write down the numeric answer in µM and omit the unit.

INSERT INTO assay_data (molecule, measurement_units, numeric_result) VALUES
  ('CC(=O)O[C@@]12CO[C@@H]1C[C@H](O)[C@@]1(C)C(=O)[C@H](O)C3=C(C)[C@@H](OC(=O)[C@H](O)[C@@H](NC(=O)OC(C)(C)C)c4ccccc4)C[C@@](O)([C@@H](OC(=O)c4ccccc4)C12)C3(C)C (some centres undefined)', 'µM', 50),
  ('COc1cccc2c1C(=O)c1c(O)c3c(c(O)c1C2=O)C[C@@](O)(C(C)=O)C[C@@H]3OC1CC([N+]([O-])(Cc2ccccc2)Cc2ccccc2)C(O)C(C)O1 (some centres undefined)', 'µM', 2.34),
  ('COc1cc(NS(C)(=O)=O)ccc1NCc1cnc2ccc3[nH]cccc3c12', 'µM', 67.4),
  ('CCN(CCCl)CCCCCNc1c2ccccc2nc2ccc(OC)cc12', 'µM', 1.78);

// below: TGI requested for another molecule
IN: Test system SN12C renal; read-out TGI; what value for CCCCCCCCCC(O)CC(=O)c1c(O)cccc1O (centres undefined) ?
OUT: 63.9

###

- Test system: HOP-92 NSCLC
- protocol_description: NCI tumour cell line growth inhibition, 48 h
Let's look at some molecules and their measured TGI.

INSERT INTO results (molecule, subject_of_test, result) VALUES
  ('CC(=O)NNc1nc(C)c(C(/C=C/c2ccc([N+](=O)[O-])cc2)=N/NC(N)=O)s1', 'HOP-92 NSCLC', '> 100 µM'),
  ('O=c1/c(=C/c2c(O)ccc3ccccc23)sc2nc3ccccc3n12', 'HOP-92 NSCLC', '> 100 µM'),
  ('CCN(CC)CCC(=O)OC1C(C)=CC(C)C(=O)CC(C(C)CC2CCC(O)C(OC)C2)OC(=O)C2CCCCN2C(=O)C(=O)[C@@]2(O)OC(CCC2C)CC(OC)\C(C)=C/C=C/C=C/C(C)CC(C)C(=O)C1OC (stereo not given in full)', 'HOP-92 NSCLC', '21.9 µM'),
  ('O=c1cc(-c2ccccc2)oc2ccc(OC/C(=N/O)c3ccc(F)cc3)cc12', 'HOP-92 NSCLC', '41.5 µM'),
  ('COc1ccc(-c2nsc3c2NC(=O)CC3c2ccc3c(c2)OCCO3)cc1 (stereo not given)', 'HOP-92 NSCLC', '> 100 µM'),
  ('COC1=CC(=O)C2C(C1=O)[C@@H]1c3ccccc3OC(C)(C)[C@H]21 (stereo not given in full)', 'HOP-92 NSCLC', '35.4 µM');

IN: Test system HOP-92 NSCLC; read-out TGI; what value for "NC(=S)Nc1ccc2c(c1)oc1ccccc12" ?
OUT: > 100 µM

IN: Test system HOP-92 NSCLC; read-out TGI; what value for "Cn1c(=O)c2c(nc3n2CCC(=O)N3CCCCl)n(C)c1=O" ?
OUT: > 100 µM

IN: Test system HOP-92 NSCLC; read-out TGI; what value for "CCCCOc1c(C(=O)O)cc(Br)cc1C(=O)O" ?
OUT: > 100 µM

IN: Test system HOP-92 NSCLC; read-out TGI; what value for "Cc1ccc2[nH]c3c(c2c1)N=c1ccccc1=NO3" ?
OUT: > 100 µM

###

- Test system: UACC-257 melanoma
- protocol_description: NCI tumour cell line growth inhibition, 48 h
Let's look at some compounds and their measured log10(TGI).
Units before log transform: µM; reported quantity: TGI; transform: log10.

INSERT INTO results (compound, subject_of_test, result_type, numeric_result) VALUES
  ('C/C(=N/NC(=S)Nc1cccc(Cl)c1)c1ccccn1', 'UACC-257 melanoma', 'log10(TGI)', 0.38),
  ('O=C(NNS(=O)(=O)c1ccc(Br)cc1)c1ccc(Cl)cc1NC(=O)C12CC3CC(CC(C3)C1)C2', 'UACC-257 melanoma', 'log10(TGI)', 1.43),
  ('N=c1n(CC(=O)NC23CC4CC(CC(C4)C2)C3)c2ccccc2n1CC(=O)NC12CC3CC(CC(C3)C1)C2', 'UACC-257 melanoma', 'log10(TGI)', 0.50),
  ('C=C1C2C[C@@H]3OC4CC5O[C@]6(CC5OC4C(C)C3OC(=O)CC3CC[C@@H]4OC5C7OC8C[C@](CCC9CC(=C)[C@H](CCC(C[C@H]1C)O2)O9)(OC7C4O3)O[C@@H]85)C[C@@H]1O[C@@]2(CC(C)[C@@H]3OC(CC(=O)CCO)C(O)C[C@@H]3O2)CC(C)[C@@H]1O6 (some centres not stated)', 'UACC-257 melanoma', 'log10(TGI)', 0.18),
  ('CC(C)(C)c1ccc(O)c(C(c2ccc([N+](=O)[O-])cc2)c2cc(C(C)(C)C)ccc2O)c1', 'UACC-257 melanoma', 'log10(TGI)', 0.53);

IN: Suppose we examine the compound CCN(CC)CCC(=O)OC1C(C)=CC(C)C(=O)CC(C(C)CC2CCC(O)C(OC)C2)OC(=O)C2CCCCN2C(=O)C(=O)[C@@]2(O)OC(CCC2C)CC(OC)\C(C)=C/C=C/C=C/C(C)CC(C)C(=O)C1OC (some centres not stated) ; what log10(TGI) value has been reported?
OUT: 1.43

IN: Suppose we examine the compound "C=C1C(=O)O[C@H]2[C@H]1CC/C(Cn1cc(Cc3c[nH]c4ccccc34)nn1)=C\CC[C@@]1(C)O[C@@H]21" ; what log10(TGI) value has been reported?
OUT: 0.65

IN: Suppose we examine the compound "C=C(C)[C@@H]1CC[C@]2(COCCCNCCCN)CC[C@]3(C)[C@H](CC[C@@H]4[C@@]5(C)CC[C@H](OCCCN)C(C)(C)[C@@H]5CC[C@]43C)[C@@H]12" ; what log10(TGI) value has been reported?
OUT: 0.24
